Measured growth of individual entries
Tested on: COLO 205 colon
assay procedure: NCI-60 one-dose screen, 48 h (100 = growth as untreated, 0 = no growth, -100 = all killed)
reported conditions: 10 µM
Protocol: Cells are grown in 96 well plates and exposed to the test compound for 48 hours. Compounds are tested at a single concentration, which is 10^-5 M for most compounds. The reported endpoint is percent growth (GI% or GIPRCNT), where numbers from 0 - 100% represent growth inhibition, and numbers from -100% - 0 represent cell death. For example, a value of 40 represents 60% growth inhibition. A value of 0 means no net growth occurred over the course of the experiment. […]
About 83,000 compounds went through this panel and 20% of them were active in at least one assay; those are over-represented in the sample as a whole.
Answer with a number only, understood to be in %.

Observe how each entry below is paired with its result.
{"columns": ["compound", "quantity unit", "growth"],
 "data": [
  ["O=C1NC(=O)C2C(=O)NC(=O)C1C21CCc2ccccc21 (configuration not stated)", "%", 125],
  ["Cc1ccc(/C(C#N)=C/c2ccc3c(c2)OCO3)cc1", "%", 65.8],
  ["N#CCc1ccc([N+](=O)[O-])cc1", "%", 105],
  ["COC(=O)CCCCC1=CCC2C(=O)C=C(O)C2C1 (configuration not stated)", "%", 111],
  ["CC(=Nc1ccccc1)C1=C(O)C(Cc2cccc(F)c2)NC1=O (configuration not stated)", "%", -55.5]
]}

// growth lookup, key: `C/C(=N\O)C1(O)CCCCC1` 99.4

// same read-out, input: `COC(=O)/C=C\C(=O)OC` 118

Input COc1ccc(C2OC(N)=C(O)C2=O)cc1OC (configuration not stated) 125

Subsequent entry: `O=[N+]([O-])c1ccccc1S(=O)c1ccccc1[N+](=O)[O-]` 106

Same question, `O=C(CC(=O)c1ccccc1O)c1ccccc1` this time 101

Would you mind doing `CC(C)=NNC(N)=S` as well? 83.5

What do you get for `CNC(=O)c1ccccc1CC1(O)c2ccccc2Oc2ccccc21` ? 38

Entry `COc1cc2nc3cc([N+](=O)[O-])ccc3c(Cl)c2cc1OC` please 112

And `CC(=O)OCC(=O)[C@@]1(O)CC[C@H]2[C@@H]3CC[C@@H]4C[C@H](O)CC[C@]4(C)[C@H]3C(=O)C[C@@]21C` ? 105

// query: `Nc1ccc(C(=O)c2ccc(N)c(Br)c2)cc1Br` -30.6

Can you check `N#CCCN(CCCN1CCOCC1)CN1C(=O)c2ccccc2C1=O` next? 109

Query `O=C(O)[C@@H]1[C@H]2C[C@H]3c4[nH]c5ccccc5c4CCN3C[C@@H]2CC[C@@H]1O` next 123

Then `Cc1cc(C(C)(C)C)cc(C)c1Br` ? 112

Now give it for COC(=O)C(C)Oc1ccc(OC#N)cc1 (configuration not stated) too. 107

Consider next the compound CC1CCCC(CC(N)=O)CC1 (configuration not stated) in the same way. 107

Query `N#CCCc1ccc(O)cc1` next 114

Another compound: Cc1ccc(Cl)cc1N1C(=O)CC(Sc2ccccc2N)C1=O (configuration not stated) 110

How about this compound: `CNC(=S)NC(C)(C)C` 119

Now the compound `COc1cccc(Sc2ccc([N+](=O)[O-])c3no[n+]([O-])c23)c1` -42.2

Next compound: `N#C/C(=C\c1cc(O)c(O)c(O)c1)C(N)=O` 104

And for O=C(O)CCC(NC(=O)OCc1ccccc1)C(=O)O (configuration not stated) ? 113

Lookup `C[N+](C)=c1ccc2nc3c(cc(Nc4ccccc4)c4ccccc43)oc-2c1` 22.6
